Experiment: protein stability index of a GFP-peptide fusion (yeast GPS) (PSI 1-4); higher = more stable; sorted into four equal gates, so the index is relative within each strain
Settings: doa10∆
Could you please report measured protein stability index for the items listed next?
Form field (numeric): enter value without unit.

Report protein stability index for MVAATKRRKTHIHKHVK [RET1]
2.96

Complete the entry with protein stability index for SNGGGKVKPIRGFCQRL [RPO31]
2.94

Determine from records and report protein stability index for KFKLLNGLAIRRAAYGV [RPS3]
2

// fetch protein stability index given entry KASTYGELVLDIEVPDV [SNF12]
2.61

Supply measured protein stability index of LVSVTSTLQHFQETLDS [MED8] in your reply.
2.4

Identify measured protein stability index associated with DDVYRPAAESKIFTPNL [SNF5]
2.82

Identify the reported protein stability index for the following entry. NAPTFNPKYDTSNASMN [YAR002W/NUP60]
3.01

Output protein stability index of LKKKVVDPFTRKEWFDI [RPS1B]
2.97

Please give measured protein stability index of the following entry: GPKLRASDLKINELFKK [RPN8]
1.98

Please report the measured protein stability index for VGLKNYDPQRDKRFSGS [RPL1A]
3.23

For the sequence HKQELQDLILDLKKKLN [SMC4] , give its measured protein stability index value.
2.55

Output measured protein stability index for this item: AELNLPTVDEQRQYKVQ [SNF11]
3.22

// fetch protein stability index given entry VIEQCYLKFIPLKRAIW [SRB8]
1.5

Specify protein stability index for MTVTFLILAGQVKVKGQ [YCS4] and stop.
2.34

Respond only with protein stability index recorded for PLGKILLKGDNITLITS [SME1]
1.9

Consider the sequence FNRDNKVSPAAAAKKAL [RPS26B] and give its recorded protein stability index.
2.4

Given WKEVMFDPSKDVLINEL [CDC53] , respond with its protein stability index.
2.41

Check the records and state protein stability index for DDENNPSHYPHPYEYEI [RRP6]
3.03

Look up and state reported protein stability index for KKPLSMALNKVLITDHI [CDC53]
1.93

Provide protein stability index value for the following sequence: IKTQQHILPEVPPVENF [TAF14]
2.21

Could you please provide reported protein stability index for SQWNDSSIDKIEDRDFL [SIR3] ? Thanks!
2.99

Note down protein stability index recorded for FLQRIDFQIDGNIFELL [RRI2]
2.63

Specify reported protein stability index for the sequence shown: ATFSVSQASSDLGETFR [CSL4]
3.04

Give the reported value of protein stability index for this record: YSRISKLKQLLDESSEQ [YIL149C/MLP2]
2.25

Return protein stability index for the following sequence: TGEKPIITGSTSTSSSN [MED8]
2.79

Return reported protein stability index. Input sequence: DVYASKVRLNASEREEL [PRP8]
1.93

Give protein stability index for the following sequence: TVHSKSRTRAHAQSKRE [RPL19A]
3.19

Kindly indicate its recorded protein stability index. Item: KSLDSIPMSKTIKDLVG [FAS2]
3.26

Query protein stability index for SSNSQQSTPQPDDMVEI [ITC1]
3.09

Specify reported protein stability index for the sequence shown: GGCDYIFSLLTGYPDEP [CYT1]
3.42

Identify measured protein stability index corresponding to MQQAQFQAQQAQQAQQA [SNF2]
2.56

For the sequence REVENSVSLLNSDIANL [SMC1] , give its measured protein stability index value.
2.8

Provide protein stability index value for the following sequence: LHPYNSRGLFEKKLMQD [YDL116W/NUP84]
2.89

Supply reported protein stability index belonging to this sequence: GEVLGITRFGLSKMRDS [RPO31]
3.56

Determine from records and report protein stability index for AVAASSTKTGTPSDLSE [POP1]
3.3

Look up and report measured protein stability index for this entry: PGVRVSGEDVIIGKTTP [RPB2]
3.36

Identify measured protein stability index associated with LAINAKTITSGLKYALA [RPB2]
2.65

Fill in protein stability index for record LEGEELAFYLRRLTAKK [RPS8A]
1.9

State, in one line, measured protein stability index of LAAMAVLESHWKQDLTK [PUP1]
3.24

Input TKYFEPTSTENNKKVVG [ECM29] , output reported protein stability index.
2.87

Report measured protein stability index; entry is SFFNISPDAPKEIMDKI [SIN4]
3.48

Look up and report measured protein stability index for this entry: QMDGFDNLGQTKIIMAT [RPT4]
3.54

Output protein stability index of VKPISIEAPQFYRYWSA [SWI3]
2.23

Provide only the value of recorded protein stability index for IILKTRQINKLIDSLPG [SRB7]
2.31

Query protein stability index for KTEPVGTGLQSYLEERE [RPC53]
3.4

State its protein stability index for this sequence: NIPQQQQMQPPNSSANN [GAL11]
2.82

Annotate the sequence TVFLPMVGLVDPDKLKP [RPT5] with its measured protein stability index.
2.77

Specify reported protein stability index for the sequence shown: LKIFKIFCIDLEVFHHF [SRB8]
1.57

// fetch protein stability index given entry DAIWSLVFQLAKNFSAQ [SRB8]
2.08

// fetch protein stability index given entry ELPTQLALEIIVRPAKG [RRP46]
1.52

Identify the reported protein stability index for the following entry. MSNDPGNEVSSLYPPPP [MED7]
3.21

Give the measured protein stability index for LTSFAEENNYQYGYSGS [SNF6]
2.08

Identify the reported protein stability index for the following entry. ASKKFGKICLILTRLNG [SSN2]
1.99

Give me measured protein stability index, please, for this sequence: LNTFGSKICLSHFSLDQ [ITC1]
2.48

Kindly indicate its recorded protein stability index. Item: LRSKLFQFKLLQSNSKL [SMC4]
1.84

----------
Test: protein stability index of a GFP-peptide fusion (yeast GPS) (PSI 1-4); higher = more stable; sorted into four equal gates, so the index is relative within each strain
Conditions: ubr1∆
So I've got a bunch of sequences here, and I need their protein stability index values.
Quick one: just the number, no unit, thanks!

State, in one line, measured protein stability index of RSSYMLELVNTPLTENI [YCG1]
2.91

Read the entry NLRTQVTQQKRSLDENR [SMC1] and write its reported protein stability index.
3.07

Please indicate protein stability index recorded for VDNSPTTESNSRLKALN [YLR335W/NUP2]
2.97

Supply recorded protein stability index for IDRGLFRSLFFRSYMDQ [RPB2] here.
2.94

Recall and state the measured protein stability index for MRFNIEIIADWIWDMNV [BRR2] .
2.39

Look up and state reported protein stability index for ERQQENLLIQRLNFNQN [SWI3]
3.19

Answer with reported protein stability index of DIWRVAGKFELLDRILP [SNF2]
2.54

Identify the reported protein stability index for the following entry. VDNVWADVYAKALEGKD [RPP1B]
3.06

Please report protein stability index for the following sequence: VNADTVGKTVKQLIMES [NSL1]
3.33

Annotate the sequence DPRHIQLLGDVMTYKGE [RPO31] with its measured protein stability index.
3.06

Report measured protein stability index; entry is EWKSNHKKKRSNAAGAD [SRB8]
1.83

Give recorded protein stability index. STIPTRENGKGGQIAHI [ROX3]
2.97

Give the measured protein stability index for LLGEGESKLKIDPDTKA [RPB11]
3.14

Please supply the value of reported protein stability index for the item DSVLQLASFEKTTDHLF [RPO31]
2.74

Quick one: give measured protein stability index for VVNITHHELVPKHIRLS [RPB5]
3.01

Supply protein stability index value. Item: NIDINNEDENIQLIKIL [YJL041W/NSP1]
2.7

Give the reported protein stability index for this sequence. EDGTFSVLYPDELEDDT [RRP43]
3.11

----------
Experiment: protein stability index of a GFP-peptide fusion (yeast GPS) (PSI 1-4); higher = more stable; sorted into four equal gates, so the index is relative within each strain
Conditions: san1∆
endpoint.label: protein stability index
Returns: the value as a bare number; no unit string appended.

Item RAIRSEKYGKQVYDLLK [BRR2] : provide protein stability index
2.94

Tell me measured protein stability index for PTSPNYSPTSPSYSPTS [RPO21] please.
3.06

Specify measured protein stability index for VRWIETQDVFLKDFNTE [FAS2] .
3.01

----------
So I've got a bunch of sequences here, and I need their protein stability index values.
Assay: protein stability index of a GFP-peptide fusion (yeast GPS) (PSI 1-4); higher = more stable; sorted into four equal gates, so the index is relative within each strain
Details: san1∆
# print the numeric value only

Please give measured protein stability index of the following entry: SLSRDFVMKTRRRKGIS [SNU114]
3.02

Specify protein stability index for AFVKQKNDSLEKTINDL [YIL149C/MLP2] and stop.
3.02

// Input: DEDEDEDEDDDDDDDED [QCR6] . Output its protein stability index only.
2.05

Quickly give me recorded protein stability index for SQFNGSGNGSNPNTNTN [PGD1]
2.84

Quickly give me recorded protein stability index for SNASRRKLINYTKKHLS [RPN4]
1.56

Return reported protein stability index. Input sequence: NPASATDNMSGRGLWNP [YJL039C/NUP192]
2.8

Consider the sequence FMNDAAADVSAVDAKQL [YML103C/NUP188] and give its recorded protein stability index.
3.06

Using known records, supply protein stability index for ILMQQQMMARMAQTATQ [SRP54]
2.08

Specify reported protein stability index for the sequence shown: IAAGTYGKVYKAKRQIN [SSN3]
2.24

Determine from records and report protein stability index for QQMIITRLKSLLKPFHV [SIR3]
2

Give protein stability index for KPDVTYADVGGLDMQKQ [RPT3]
3.47

For the sequence IIGTFSDSYKVSLQNFS [RRP40] , give its measured protein stability index value.
2.24

Please list protein stability index recorded for the sequence KNSDVWFLDHNYIENMN [RPN8]
2.57

State its protein stability index for this sequence: FVQLCEMGYLIQISKLH [RPC82]
1.77

Look up protein stability index of ESFESYHNLTTHNSYEK [RPN6] and report it.
2.84

Give the value of protein stability index reported for the following: PHANPITHAHSLSNPNS [PGD1]
2.77

Give the value of protein stability index reported for the following: RSTKDMIDAVFEQDSHL [SNF6]
3.27
